Field: Mammosphere numbers (>100 μM), percentage of vehicle treated control. Provide a value for each of the molecules that follow.
Tested on: MCF-7 mammospheres
EXPERIMENTAL DETAILS: cells
Type: cell-based, human
CONDITION SET: 5 ppm, 5 days; vehicle control 86.7+6.8

What Mammosphere numbers (>100 μM), percentage of vehicle treated control appears in the records for this molecule with MCF-7 mammospheres? CC1=CC(O/C=C2/C(=O)c3c(c4cc(-c5scc6c5OCCO6)ccc4n3C)C2C)OC1=O (centres unmarked)
8.3+3.5%

Fill in the recorded Mammosphere numbers (>100 μM), percentage of vehicle treated control for this molecule, with MCF-7 mammospheres as test system: CC1=CC(O/C=C2\Cc3c(n(C)c4ccc(-c5ccc(N(C)C)cc5)cc34)C2=O)OC1=O (racemic)
38+6.2%

Which measured Mammosphere numbers (>100 μM), percentage of vehicle treated control belongs to CC1=CC(O/C=C2\Cc3c(n(C)c4ccccc34)C2=O)OC1=O (racemic) , tested on MCF-7 mammospheres?
23+5%

# value lookup — system MCF-7 mammospheres, readout Mammosphere numbers (>100 μM), percentage of vehicle treated control, item CC1=CC(O/C=C2/C(=O)c3c(c4cc(-c5cccs5)ccc4n3C)C2C)OC1=O (centres unmarked)
6+2%

Form entry - test system: MCF-7 mammospheres; read-out: Mammosphere numbers (>100 μM), percentage of vehicle treated control; molecule: CC1=CC(O/C=C2\Cc3c(n(C)c4cc(-c5cccs5)ccc34)C2=O)OC1=O (racemic)
9.3+1.5%
